Molecular target: New Delhi metallo-β-lactamase-1 (NDM-1) (Klebsiella pneumoniae)
Assay: imipenem hydrolysis by purified NDM-1
Type: biochemical
assay-endpoint: pIC50
The meaning of pIC50 here: minus log10 of the concentration in molar units.

*Q* Hello, please tell me recorded pIC50 for this one: O=c1c(O)c(-c2cc(O)c(O)c(O)c2)oc2cc(O)cc(O)c12 [myricetin]
*A* 5.48

---

Molecular target: New Delhi metallo-β-lactamase-1 (NDM-1) (Klebsiella pneumoniae)
Test: 1H-15N HSQC NMR titration
pKd: −log10 of the molar value.
assay-endpoint: pKd

*Q* Hello, please tell me recorded pKd for this one: `O=c1c(O)c(-c2ccc(O)cc2O)oc2cc(O)cc(O)c12`
*A* ~3.52
